Below, each of the compounds is paired with its reported Tmax value.
Assay: Rodent pharmacokinetic study
Assay type: in vivo, Male Wistar rats
Settings: whole blood; Wistar male rat, per oral, 3 mg/kg, water, blood
# output: numeric value plus its unit

## Task Quick one: give measured Tmax for O=C(C1CC1)N1CCc2nc(OC3CCN(C4CCC4)CC3)sc2C1.O=C(O)C(O)C(O)C(=O)O [Example 4]
## Result 40.2 min

## Task Quick one: give measured Tmax for CC(C)C(=O)N1CCc2nc(OC3CCN(C4CCC4)CC3)sc2C1.O=C(O)C(O)C(O)C(=O)O [Example 22]
## Result 25.2 min

## Task Quick one: give measured Tmax for O=C(C1CCC1)N1CCc2nc(OC3CCN(C4CCC4)CC3)sc2C1.O=C(O)C(O)C(O)C(=O)O [Example 5]
## Result 25.2 min

Sourced from patent US8912179B2
